# Measured On: recombinant human monoamine oxidase B (hMAO-B) (Homo sapiens)
# Assay Overview: hMAO-B enzyme kinetics (Lineweaver-Burk, Dixon, secondary plots)
# Assay type: biochemical
# Details: from secondary plots; read-out: Kiu, hMAO-B
Property: Ki (µM)
Kindly provide the numeric value in µM only, without the unit symbol.

[Q] // returns reported Ki for input Cc1coc2c1C(=O)C(=O)c1c-2ccc2c1CCCC2(C)C
[A] 13.7

* * *

# Measured On: recombinant human monoamine oxidase B (hMAO-B) (Homo sapiens, UniProt P27338)
# Sequence (P27338 1-520): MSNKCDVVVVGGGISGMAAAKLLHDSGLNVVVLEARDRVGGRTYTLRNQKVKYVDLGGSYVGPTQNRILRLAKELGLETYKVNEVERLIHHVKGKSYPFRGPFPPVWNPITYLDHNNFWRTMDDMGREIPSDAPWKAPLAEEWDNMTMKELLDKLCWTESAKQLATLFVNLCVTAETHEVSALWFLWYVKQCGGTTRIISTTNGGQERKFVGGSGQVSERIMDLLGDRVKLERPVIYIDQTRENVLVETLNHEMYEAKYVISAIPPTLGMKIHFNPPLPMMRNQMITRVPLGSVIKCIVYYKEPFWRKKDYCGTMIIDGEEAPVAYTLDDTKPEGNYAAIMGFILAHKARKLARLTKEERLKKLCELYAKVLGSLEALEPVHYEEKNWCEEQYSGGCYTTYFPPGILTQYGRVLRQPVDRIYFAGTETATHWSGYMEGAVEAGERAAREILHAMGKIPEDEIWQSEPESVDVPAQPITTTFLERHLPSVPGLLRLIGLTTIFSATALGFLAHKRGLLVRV
# Assay Overview: hMAO-B enzyme kinetics (Lineweaver-Burk, Dixon, secondary plots)
# Assay type: biochemical
# Details: Kic, hMAO-B, from secondary plots
Reported pKi values for the following compounds.
Scale for pKi: -log10 of concentration given in mol/L; no unit attached.

- Compound: "Cc1coc2c1C(=O)C(=O)c1c-2ccc2c(C)cccc12 [Tanshinone I]"
  Value Reported: 4.59

We now examine a further compound.
[Q] What is its pKi for recombinant human monoamine oxidase B (hMAO-B) (Homo sapiens, UniProt P27338)? Entry: C[C@H]1COC2=C1C(=O)C(=O)c1c2ccc2c1CCCC2(C)C [Cryptotanshinone]
[A] 5.03

* * *

# Measured On: recombinant human monoamine oxidase B (hMAO-B) (Homo sapiens, UniProt P27338)
# Assay Overview: hMAO-B inhibition, MAO-Glo chemiluminescent assay
# Details: mean ± SD of triplicate experiments
Reported IC50 values for the following compounds.
Kindly provide the numeric value in µM only, without the unit symbol.

- Smiles Record: "C[C@H]1COC2=C1C(=O)C(=O)c1c2ccc2c1CCCC2(C)C"
  Value Reported: 23.1

We now examine a further compound.
[Q] What is its IC50 for recombinant human monoamine oxidase B (hMAO-B) (Homo sapiens, UniProt P27338)? Entry: Cc1coc2c1C(=O)C(=O)c1c-2ccc2c(C)cccc12
[A] 24.9

* * *

# Measured On: recombinant human monoamine oxidase B (hMAO-B) (Homo sapiens, UniProt P27338)
# Sequence (P27338 1-520): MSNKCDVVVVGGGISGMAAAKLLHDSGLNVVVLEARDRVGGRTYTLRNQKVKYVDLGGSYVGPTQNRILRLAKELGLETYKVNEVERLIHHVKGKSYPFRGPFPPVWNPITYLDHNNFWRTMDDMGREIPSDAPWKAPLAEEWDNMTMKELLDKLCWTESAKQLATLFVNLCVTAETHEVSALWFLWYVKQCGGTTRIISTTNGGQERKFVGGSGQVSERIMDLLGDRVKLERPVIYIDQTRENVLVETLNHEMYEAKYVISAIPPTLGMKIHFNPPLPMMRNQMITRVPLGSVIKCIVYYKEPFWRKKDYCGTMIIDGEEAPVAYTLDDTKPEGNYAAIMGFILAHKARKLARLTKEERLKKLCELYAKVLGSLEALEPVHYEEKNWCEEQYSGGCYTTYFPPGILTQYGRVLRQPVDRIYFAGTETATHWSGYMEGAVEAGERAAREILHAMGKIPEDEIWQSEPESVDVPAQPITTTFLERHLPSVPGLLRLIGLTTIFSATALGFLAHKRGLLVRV
# Assay Overview: hMAO-B enzyme kinetics (Lineweaver-Burk, Dixon, secondary plots)
# Format: biochemical
# Details: from secondary plots; read-out: Kic, hMAO-B
Property: pKi
Scale for pKi: -log10 of concentration given in mol/L; no unit attached.

[Q] // returns reported pKi for input Cc1coc2c1C(=O)C(=O)c1c-2ccc2c1CCCC2(C)C
[A] 4.89

Every entry's value here was drawn from paper PMC8301926.
